Catalogue of melting point readings, one per entry.

O=C(O)c1cn(Cc2ccccc2)nc1-c1ccccc1    189 to 191 °C
Nc1ccc(Br)c(Cl)c1[N+](=O)[O-]    106 to 108 °C
Nc1cccc(S(=O)(=O)Nc2cccc(Cl)c2)c1    107 to 109 °C
COCCOc1ccc(Cl)cc1C#N    64 to 66 °C
Cc1nc(O)ccc1Br    199 to 201 °C
Cc1ccc(C2(C)NC(=O)NC2=O)cc1 (stereo not drawn)    207 to 209 °C

Request: What does the data say about its melting point? Entry: `CC1(O)CN(C(=O)OC(C)(C)C)C1`
Response: 89 to 91 °C

Request: And what about the compound `NNC(=O)c1ccc(CSc2nc3ccccc3[nH]2)cc1` ?
Response: 64 to 66 °C

Request: And what about the compound `O=Cc1cn2cccnc2n1` ?
Response: 189 to 191 °C

Request: And what about the compound `CC(=Cc1ccc(OCc2ccccc2)c(OCc2ccccc2)c1)C(=O)O` ?
Response: 138 to 140 °C

Request: And what about the compound `Cc1c(C(=O)O)oc2cc3c(cc12)CCC3` ?
Response: 265 to 267 °C

Request: And what about the compound `Cc1csc(Sc2ccc(N)c(C)c2)n1` ?
Response: 61 to 63 °C

Request: And what about the compound `Nc1cc(F)ccc1S(N)(=O)=O` ?
Response: 129 to 131 °C
